Where do the numbers come from? From patent US20200347144A1.

- tested_target: T1, human 4-1BB, full length, on transfected cells (human, UniProt Q07011 24-255)
- T1 construct: whole, on cells; also called CHOK1-h4-1BB
- T1 sequence (Q07011 24-255): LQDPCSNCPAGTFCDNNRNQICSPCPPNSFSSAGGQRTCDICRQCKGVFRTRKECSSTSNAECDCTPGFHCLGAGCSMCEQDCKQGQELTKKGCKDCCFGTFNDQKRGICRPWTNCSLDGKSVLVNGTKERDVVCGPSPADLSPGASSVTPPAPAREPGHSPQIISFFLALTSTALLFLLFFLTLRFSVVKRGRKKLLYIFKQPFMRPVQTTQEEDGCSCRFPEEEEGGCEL
- assay_text: FACS, CHOK1-h4-1BB cells; Ab 2 ug/ml
# average fluorescence intensity per entry
API: value field is a number in MFI; no unit string.

- 118F3A2 (antibody, V domains shown) VH: QVQLQQWGAGLLKPSETLSLTCGVYGGSFSTNYWSWIRQSPGKGLEWIGEINHSGNTEYNPSLKSRLTISIDTSKNQFSLKLTSVTAADTAVYYCARMGYHSPSFDFWGQGVLVTVSS VL: KIVMTQSPATLSVSPGERATLPCRVSQGIGSNLAWYQQKPGQAPRLLIYGASTRATGVPARFSGSGSGSEFTLTISSLQSEDLALYYCQQYNNWPLTFGGGTKVEIK: 540
- 15G10D4 (antibody, V domains shown) VH: QVQLVESGGGVVQPGRSLRLSCAASGFSFSSYAMHWVRQAPGKGLEWVAIIWYDGSNQYYADSVKGRFTISRDNSKNTLYLQMNSLRAEDTAVYYCARVKQWLVSYFDYWGQGTLVTVSS VL: EIVMTQSPATLSVSPGERATLSCRASQSVSSNLAWYQQKPGQVPRLLIYGASTRATGIPARFSGSGSGTEFSLIISSLQSEDFAVYYCQQYNNWPTFGGGTKVEIK: 521

Next, consider the following binder.
[Q] Find the recorded average fluorescence intensity belonging to 11H10C9 (antibody, V domains shown) VH: QVQLVESGGGVVQPGRSLRLSCAASGFTFSSYAMHWVRQAPGKGLEWVAIIWYDGSNQYYADSVKGRFTISRDNSMNTLYLQMNSLRAEDTAVYYCARVEQWLVSYFDFWGQGTLVTVSS VL: EIVMTQSPATLSVSPGERATLSCRASQSVSSNLAWYQQKPGQVPRLLIYGASTRATGIPARFSGSGSGTEFTLTISSLQSEDFAVYYCQQYNNWPTFGGGTKVEIK and report it.
[A] 520
